- SYSTEM TESTED: Nuclear receptor coactivator 2 (Homo sapiens) (UniProt Q15596)
- Sequence (Q15596 whole entry, looked up): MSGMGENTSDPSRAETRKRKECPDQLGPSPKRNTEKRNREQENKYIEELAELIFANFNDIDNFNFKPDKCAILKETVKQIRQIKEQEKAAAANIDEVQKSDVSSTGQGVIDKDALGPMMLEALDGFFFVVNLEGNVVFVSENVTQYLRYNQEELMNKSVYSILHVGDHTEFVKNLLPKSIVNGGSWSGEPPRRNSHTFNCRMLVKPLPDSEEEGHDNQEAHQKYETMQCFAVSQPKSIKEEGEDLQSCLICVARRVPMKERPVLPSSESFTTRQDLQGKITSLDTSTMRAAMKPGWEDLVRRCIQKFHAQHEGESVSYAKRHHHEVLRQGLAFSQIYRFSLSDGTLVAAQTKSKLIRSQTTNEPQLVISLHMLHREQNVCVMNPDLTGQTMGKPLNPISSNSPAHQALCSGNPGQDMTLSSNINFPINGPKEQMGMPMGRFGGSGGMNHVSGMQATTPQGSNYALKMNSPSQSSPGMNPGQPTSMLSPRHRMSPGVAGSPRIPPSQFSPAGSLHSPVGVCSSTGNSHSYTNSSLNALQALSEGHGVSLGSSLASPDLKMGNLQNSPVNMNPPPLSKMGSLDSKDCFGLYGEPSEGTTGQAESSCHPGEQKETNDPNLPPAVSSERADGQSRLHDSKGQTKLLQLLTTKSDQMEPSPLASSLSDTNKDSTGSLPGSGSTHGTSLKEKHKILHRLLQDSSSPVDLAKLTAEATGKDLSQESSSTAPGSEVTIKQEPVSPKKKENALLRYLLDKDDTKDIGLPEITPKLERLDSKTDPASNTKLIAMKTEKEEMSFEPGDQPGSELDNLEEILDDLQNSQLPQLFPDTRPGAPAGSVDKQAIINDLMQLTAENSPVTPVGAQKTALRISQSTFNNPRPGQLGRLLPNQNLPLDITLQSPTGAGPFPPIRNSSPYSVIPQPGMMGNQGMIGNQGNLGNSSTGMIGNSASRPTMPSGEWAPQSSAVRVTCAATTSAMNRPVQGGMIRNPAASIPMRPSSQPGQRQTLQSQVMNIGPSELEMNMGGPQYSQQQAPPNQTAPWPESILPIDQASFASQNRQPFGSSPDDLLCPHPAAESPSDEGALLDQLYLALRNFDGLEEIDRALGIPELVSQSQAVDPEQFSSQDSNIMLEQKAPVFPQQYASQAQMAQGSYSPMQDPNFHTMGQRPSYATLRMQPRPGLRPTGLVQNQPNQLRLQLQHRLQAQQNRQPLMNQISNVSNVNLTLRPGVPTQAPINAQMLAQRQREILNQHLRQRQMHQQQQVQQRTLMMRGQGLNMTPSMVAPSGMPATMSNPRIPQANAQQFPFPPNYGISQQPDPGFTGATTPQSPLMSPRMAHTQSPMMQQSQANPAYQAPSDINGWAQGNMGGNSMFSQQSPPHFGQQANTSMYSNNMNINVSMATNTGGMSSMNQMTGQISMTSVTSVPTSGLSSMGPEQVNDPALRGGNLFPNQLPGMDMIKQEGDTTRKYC
- PROTOCOL SUMMARY: SRC2 coactivator transcriptional activity inhibitors, confirmation, cell-based, luminescence, HEK293, triplicate (AID 652008);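 also: 0% = DMSO-treated cells and 100% = Gossypol at 36 µM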
- EXPERIMENTAL CONDITIONS: HEK293 GAL4-SRC2 luciferase reporter, at 8.9 µM, hits give high values
Attribute: inhibition
# unit: % | format: bare number

# returns recorded inhibition (system: Nuclear receptor coactivator 2 (Homo sapiens) (UniProt Q15596)) for O=C(NCc1ccc(Cl)c(Cl)c1)c1cc(C2CCCCN2C(=O)CCc2ccccc2)on1 (stereo unspecified) 12.6

---

- System: transactivating tegument protein VP16 (Human herpesvirus 1), Gal4-VP16 luciferase reporter
- PROTOCOL SUMMARY: VP16 transactivation inhibitors, counter-screen for SRC3 inhibitor project, cell-based, luminescence, high throughput (AID 588794)
- EXPERIMENTAL CONDITIONS: mammalian cells, VP16-driven luciferase reporter luminescence; at 3.6 µM
Activity calls are given as the source filed them. Cut-off read from the data, not from the text of the source: active = inhibition above about 30%; inactive = the rest.
Use one of these outcomes when replying: active, inactive

| COMPOUND | ASSIGNED CATEGORY |
| --- | --- |
| CCN(CC(=O)Nc1ccccc1C(F)(F)F)C(=O)c1ccc(N2C(=O)CCC2=O)cc1 | inactive |
| CCOc1cccc(/C=N/NC(=O)c2cc(-c3cccn3C)n[nH]2)c1O | active |
| COc1cccc(N(C(=O)CCl)C(C(=O)NCCc2ccccc2)c2cccs2)c1 (configuration not stated) | active |
| CC(C)(C)c1ccc(C(=O)NC(=S)Nc2nc3c(s2)CCCC3)cc1 | inactive |
| Cc1cc(C)nc(/N=C(\N)Nc2ccc(OCCC(C)C)cc2)n1 | inactive |
| COc1ccc(C(=O)Nc2nnc(Cc3cccs3)s2)cc1OC | active |
| O=C(N/N=C/c1c(O)ccc2ccccc12)c1ccc(CO)nc1 | active |
| CN1CCN(c2ccc(NC(=O)N3CCc4ccccc43)cc2)CC1 | inactive |
| Oc1ccc(N=Nc2ccc3c(c2)OCCO3)c2cccnc12 | inactive |
| C/C(CC(C)(C)C1CCCCC1)=N\NC(N)=S | active |

Name the outcome recorded for Cc1cc(NC(c2ccc(Cl)cc2)c2ccc3cccnc3c2O)no1 (configuration not stated) in the assay. active

Name the outcome recorded for O=C(NN=C(c1ccccc1)c1ccccn1)c1ccccc1 in the assay. active

---

Attribute: inhibition
- System: transactivating tegument protein VP16 (Human herpesvirus 1), Gal4-VP16 luciferase reporter
- PROTOCOL SUMMARY: VP16 transactivation inhibitors, counter-screen for SRC3 inhibitor project, cell-based, luminescence, high throughput (AID 588794)
- EXPERIMENTAL CONDITIONS: mammalian cells, VP16-driven luciferase reporter luminescence; at 3.6 µM; hits give high values
Active and inactive are the calls of the source. Cut-off read from the data, not from the text of the source: active = inhibition above about 30%; inactive = the rest.

| COMPOUND | SYSTEM TESTED | inhibition |
| --- | --- | --- |
| CCOc1ccc(-c2cc(C)n3nc(C(N)=O)cc3n2)cc1 | transactivating tegument protein VP16 (Human herpesvirus 1), Gal4-VP16 luciferase reporter | 23.3% (inactive) |
| COc1ccc(CNS(=O)(=O)c2ccc3c(c2)N(C(C)=O)CC(C)S3)cc1 (stereo not given) | transactivating tegument protein VP16 (Human herpesvirus 1), Gal4-VP16 luciferase reporter | 11.6% (inactive) |
| CC(C)c1ccc(-c2csc3ncnc(N4CCN(C)CC4)c23)cc1 | transactivating tegument protein VP16 (Human herpesvirus 1), Gal4-VP16 luciferase reporter | 35.5% (active) |

Can you share its inhibition? I mean this compound: C=CCn1c(C)cc(C2=NNC(=NC(C)(C)C)SC2)c1C 33.7% (active)

Can you share its inhibition? I mean this compound: O=C(NCCc1cn2ccccc2n1)c1cc(COc2ccc3ncccc3c2)on1 18.4% (inactive)

Can you share its inhibition? I mean this compound: Cc1cc([N+](=O)[O-])ccc1-c1ccc(C2Nc3ccccc3C(=O)N2O)o1 (stereo not given) 1.31% (inactive)

Can you share its inhibition? I mean this compound: CC(C)[C@@H]1CC[C@@H](C)C[C@H]1OC(=O)C[n+]1cc(-c2ccc(Cl)cc2)n2c1CCCCC2 20.6% (inactive)

Can you share its inhibition? I mean this compound: CC1(C)CC(N2CCN(Cc3ccccc3)CC2)=CC(=[N+]2CCCCC2)C1 50.7% (active)
